test: IV and oral DMPK cassette dose experiment; format: in vivo, C57Bl/6 mice; settings: male, C57Bl/6, mouse, plasma, po, 1 mg/kg
Mark condition met only for AUC(0-t) values smaller than 9 ng·h/mL; exact matches and larger values are condition not met.

In [3]: df
Out[3]:
                                   compound  assigned_category
0  O=[N+]([O-])c1ccc(CN(Cc2ccc(F)cc2)Cc2cccnc2)s1      condition met
1    N#Cc1ccc(CN(Cc2ccc(Cl)cc2)Cc2cccnc2)s1  condition not met
2  Cc1cc(Cl)ccc1CN(Cc1ccc(Cl)cc1)Cc1ccc([N+](=O)[O-])s1  condition not met
3  CCOC(=O)N1CCC(CN(Cc2ccc(Cl)cc2)Cc2ccc([N+](=O)[O-])s2)C1 (centres unmarked) [Compound 3, reference compound]      condition met
4  N#Cc1ccc(CN(Cc2cccnc2)Cc2ccc(F)c(F)c2)s1  condition not met

* * *

Form field: Cmax (one value per entry).
experiment: IV and oral DMPK cassette dose experiment; format: in vivo, C57Bl/6 mice; settings: male, C57Bl/6, mouse, plasma, po, 1 mg/kg
Measurement Kind: Cmax (ng/mL)

In [3]: df
Out[3]:
                                   molecule  result_units  observed_result
0  N#Cc1ccc(CN(Cc2cccnc2)Cc2ccc(F)c(F)c2)s1         ng/mL             9.94
1  Cc1cc(Cl)ccc1CN(Cc1ccc(Cl)cc1)Cc1ccc([N+](=O)[O-])s1         ng/mL              180
2    N#Cc1ccc(CN(Cc2ccc(Cl)cc2)Cc2cccnc2)s1         ng/mL             9.14
3  O=[N+]([O-])c1ccc(CN(Cc2ccc(F)cc2)Cc2cccnc2)s1         ng/mL             8.98
4  CCOC(=O)N1CCC(CN(Cc2ccc(Cl)cc2)Cc2ccc([N+](=O)[O-])s2)C1 (centres unmarked) [Compound 3, reference compound]         ng/mL             7.41

* * *

assay: IV and oral DMPK cassette dose experiment; assay type: in vivo, C57Bl/6 mice; details: male, C57Bl/6, mouse, plasma, 1 mg/kg
Measurement Kind: half-life (h)

                               smiles_input  measurement_kind  observed_result
0  Cc1cc(Cl)ccc1CN(Cc1ccc(Cl)cc1)Cc1ccc([N+](=O)[O-])s1         half-life                2

* * *

assay: IV and oral DMPK cassette dose experiment; type: in vivo, C57Bl/6 mice; settings: male, C57Bl/6, mouse, plasma, iv, 1 mg/kg
Form field: clearance (one value per entry).
Measurement Kind: clearance (mL/min/kg)

>>> print(df.to_string())
                                   compound  observed_result
0    N#Cc1ccc(CN(Cc2ccc(Cl)cc2)Cc2cccnc2)s1             46.7
1  Cc1cc(Cl)ccc1CN(Cc1ccc(Cl)cc1)Cc1ccc([N+](=O)[O-])s1             6.67
2  CCOC(=O)N1CCC(CN(Cc2ccc(Cl)cc2)Cc2ccc([N+](=O)[O-])s2)C1 (centres unmarked) [Compound 3, reference compound]               45
3  O=[N+]([O-])c1ccc(CN(Cc2ccc(F)cc2)Cc2cccnc2)s1             46.7
4  N#Cc1ccc(CN(Cc2cccnc2)Cc2ccc(F)c(F)c2)s1             43.3

Hey, just so you know, these numbers are from paper PMC4347663.
